# SYSTEM: T1, CRBN, Q96SW2;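 also: pooled lentiviral library of zinc finger degron-EGFP fusions in mCherry-positive Jurkat cells, FACS-sorted after compound exposure, with degron abundance counted by next-generation sequencing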
# T1 chain: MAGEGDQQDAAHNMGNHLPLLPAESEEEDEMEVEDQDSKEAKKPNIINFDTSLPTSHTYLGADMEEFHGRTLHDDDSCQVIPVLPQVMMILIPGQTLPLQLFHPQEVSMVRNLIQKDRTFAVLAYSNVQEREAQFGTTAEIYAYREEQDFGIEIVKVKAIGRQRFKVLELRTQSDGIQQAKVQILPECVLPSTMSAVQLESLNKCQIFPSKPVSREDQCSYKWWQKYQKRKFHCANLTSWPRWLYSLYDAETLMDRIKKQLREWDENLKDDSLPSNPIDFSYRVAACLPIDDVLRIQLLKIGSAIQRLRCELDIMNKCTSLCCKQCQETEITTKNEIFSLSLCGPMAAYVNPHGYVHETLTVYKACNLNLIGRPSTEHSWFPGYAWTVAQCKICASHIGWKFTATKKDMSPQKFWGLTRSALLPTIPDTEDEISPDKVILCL
# EXPERIMENTAL_DETAILS: log2 fold change of degron read counts, EGFP-low vs EGFP+ sorted cells (limma voom), compound-induced degradation; higher = more compound-induced degradation of the degron-EGFP fusion; degrons are variants of IKZF1/3 zinc finger 2; compound dose not given here
# TEST_CONTEXT: Jurkat; 18 h; compound: thalidomide
Over roughly 8,300 sequences, “log2 fold change of degron read counts, EGFP-low vs EGFP+ sorted cells (limma voom), compound-induced degradation” has its median near -1.1; the highest 2% begin near 3.2. This is one part of a sample in which the highest values are shown more often than they occur.
Reported log2 fold change of degron read counts values for the following sequences.
METRIC: log2 fold change of degron read counts

In [3]: df
Out[3]:
                                    sequence  experimental_value
 0  LGCEICGFPCTQKGNLLRHIKL [46L_47G_49E_50I_52G_53F_54P_55C_67L_, Q9UKT9]               -1.69
 1  FSCNQCGRDFTQKGNLLRHIKL [46F_47S_49N_50Q_52G_53R_54D_55F_67L_, Q9UKT9]               -2.97
 2  FNCPVCGATFTQKGNLLRHIKL [46F_47N_49P_50V_52G_53A_54T_55F_67L_, Q9UKT9]              0.0692
 3  FFCNQCGHLFTQKGNLLRHIKL [46F_47F_49N_50Q_52G_53H_54L_55F_67L_, Q9UKT9]                -1.3
 4  FQCEVCGAIFTQKGNLLRHIKL [46F_47Q_49E_50V_52G_53A_54I_55F_67L_, Q9UKT9]                 3.7
 5  LMCNQCGFMCTQKGNLLRHIKL [46L_47M_49N_50Q_52G_53F_54M_55C_67L_, Q9UKT9]               -1.42
 6  FNCPICGRWFTQKGNLLRHIKL [46F_47N_49P_50I_52G_53R_54W_55F_67L_, Q9UKT9]              -0.248
 7  FFCEICGRYFTQKGNLLRHIKL [46F_47F_49E_50I_52G_53R_54Y_55F_67L_, Q9UKT9]              -0.888
 8  FTCPICGHHFTQKGNLLRHIKL [46F_47T_49P_50I_52G_53H_54H_55F_67L_, Q9UKT9]               -1.14
 9  FRCPICGHVFTQKGNLLRHIKL [46F_47R_49P_50I_52G_53H_54V_55F_67L_, Q9UKT9]               -1.86
10  FNCDVCGAHFTQKGNLLRHIKL [46F_47N_49D_50V_52G_53A_54H_55F_67L_, Q9UKT9]               -2.36
11  FCCPVCGATFTQKGNLLRHIKL [46F_47C_49P_50V_52G_53A_54T_55F_67L_, Q9UKT9]                2.11
12  FYCEVCGAIFTQKGNLLRHIKL [46F_47Y_49E_50V_52G_53A_54I_55F_67L_, Q9UKT9]                0.38
13  FWCEICGRSFTQKGNLLRHIKL [46F_47W_49E_50I_52G_53R_54S_55F_67L_, Q9UKT9]                -1.3
14  FMCPVCGATFTQKGNLLRHIKL [46F_47M_49P_50V_52G_53A_54T_55F_67L_, Q9UKT9]                1.06
15  FVCEVCGAIFTQKGNLLRHIKL [46F_47V_49E_50V_52G_53A_54I_55F_67L_, Q9UKT9]                1.47
16  FKCNVCGAVFTQKGNLLRHIKL [46F_47K_49N_50V_52G_53A_54V_55F_67L_, Q9UKT9]                  -2
17  FECPICGACFTQKGNLLRHIKL [46F_47E_49P_50I_52G_53A_54C_55F_67L_, Q9UKT9]                2.94
18  FNCNICGACFTQKGNLLRHIKL [46F_47N_49N_50I_52G_53A_54C_55F_67L_, Q9UKT9]              -0.352
19  FHCDQCGACFTQKGNLLRHIKL [46F_47H_49D_50Q_52G_53A_54C_55F_67L_, Q9UKT9]               -2.89
20  FRCEVCGAIFTQKGNLLRHIKL [46F_47R_49E_50V_52G_53A_54I_55F_67L_, Q9UKT9]                1.07
21  FRCPICGACFTQKGNLLRHIKL [46F_47R_49P_50I_52G_53A_54C_55F_67L_, Q9UKT9]                1.35
22  FICPICGRGFTQKGNLLRHIKL [46F_47I_49P_50I_52G_53R_54G_55F_67L_, Q9UKT9]              0.0621
23  FTCPICGRYFTQKGNLLRHIKL [46F_47T_49P_50I_52G_53R_54Y_55F_67L_, Q9UKT9]               0.782
24  FMCDVCGACFTQKGNLLRHIKL [46F_47M_49D_50V_52G_53A_54C_55F_67L_, Q9UKT9]                -1.1
25  FDCPICGHIFTQKGNLLRHIKL [46F_47D_49P_50I_52G_53H_54I_55F_67L_, Q9UKT9]               -1.37
26  FKCPICGACFTQKGNLLRHIKL [46F_47K_49P_50I_52G_53A_54C_55F_67L_, Q9UKT9]               -0.71
27  FDCNVCGAPFTQKGNLLRHIKL [46F_47D_49N_50V_52G_53A_54P_55F_67L_, Q9UKT9]              -0.873
28  FSCPICGRFFTQKGNLLRHIKL [46F_47S_49P_50I_52G_53R_54F_55F_67L_, Q9UKT9]               -1.17

Just for reference, the supplement of paper PMC12645437 is where these values come from.
